So I've got a bunch of compounds here, and I need their IC50 values.
system-name: human recombinant butyrylcholinesterase (hrBuChE) (Homo sapiens)
Sequence (P06276 29-602): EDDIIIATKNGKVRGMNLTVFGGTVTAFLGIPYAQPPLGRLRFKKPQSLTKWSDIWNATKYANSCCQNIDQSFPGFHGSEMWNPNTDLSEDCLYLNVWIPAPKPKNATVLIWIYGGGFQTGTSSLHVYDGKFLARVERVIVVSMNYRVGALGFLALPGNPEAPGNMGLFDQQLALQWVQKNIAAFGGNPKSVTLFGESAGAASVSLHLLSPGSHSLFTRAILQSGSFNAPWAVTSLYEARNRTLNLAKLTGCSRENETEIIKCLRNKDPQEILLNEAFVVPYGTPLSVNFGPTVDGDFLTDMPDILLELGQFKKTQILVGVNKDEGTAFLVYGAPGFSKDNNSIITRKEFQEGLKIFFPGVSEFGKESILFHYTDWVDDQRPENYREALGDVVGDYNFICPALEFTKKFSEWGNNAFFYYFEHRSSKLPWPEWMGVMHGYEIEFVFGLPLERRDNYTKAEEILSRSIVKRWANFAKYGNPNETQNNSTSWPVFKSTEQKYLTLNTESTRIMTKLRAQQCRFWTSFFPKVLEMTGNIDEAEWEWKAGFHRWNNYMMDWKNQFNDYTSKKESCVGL
assay-details: hrBuChE inhibition, Ellman method (screening and IC50)
condition-set: mean ± standard error of the mean, triplicate determinations
One number for each entry, in µM.

Solved cases (2 shown):
compound | attribute-measured | unit-text | meas-value
CC(C)N1CCN(CCCCOc2ccc3ccc(=O)[nH]c3c2)CC1 [QN8] | IC50 | µM | 12.7
CC(C)N1CCN(CCCCOc2ccc3c(c2)NC(=O)CC3)CC1 [DQN7] | IC50 | µM | 16.7

As a next step, examine the compound that follows.
Query: Supply measured IC50 of CC(C)N1CCN(CCCCCOc2ccc3ccc(=O)[nH]c3c2)CC1 [QN9] in your reply.
Reply: 6.7

* * *

system-name: human recombinant acetylcholinesterase (hrAChE) (Homo sapiens)
Sequence (P22303 32-614): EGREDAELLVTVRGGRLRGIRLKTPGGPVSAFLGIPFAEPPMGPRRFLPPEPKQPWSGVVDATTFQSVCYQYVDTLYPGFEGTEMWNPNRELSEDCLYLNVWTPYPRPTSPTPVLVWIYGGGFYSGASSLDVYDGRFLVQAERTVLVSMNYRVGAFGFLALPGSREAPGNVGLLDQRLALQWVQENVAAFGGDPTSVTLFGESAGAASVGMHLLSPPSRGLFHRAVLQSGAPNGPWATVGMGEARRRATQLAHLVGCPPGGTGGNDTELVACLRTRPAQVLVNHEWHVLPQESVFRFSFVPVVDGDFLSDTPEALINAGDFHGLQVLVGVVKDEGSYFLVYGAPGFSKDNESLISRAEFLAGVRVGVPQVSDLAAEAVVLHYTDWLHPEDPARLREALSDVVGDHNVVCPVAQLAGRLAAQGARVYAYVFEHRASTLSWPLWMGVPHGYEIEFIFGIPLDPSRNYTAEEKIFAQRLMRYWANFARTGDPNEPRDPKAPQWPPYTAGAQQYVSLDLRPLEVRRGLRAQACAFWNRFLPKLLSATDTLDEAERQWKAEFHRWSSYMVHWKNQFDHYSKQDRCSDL
assay-details: hrAChE inhibition, Ellman method (screening and IC50)
condition-set: mean ± standard error of the mean, triplicate determinations
So I've got a bunch of compounds here, and I need their pIC50 values.
One number for each entry, as −log10 of the molar value.

Solved cases (2 shown):
compound | system-name | pIC50
CC(C)N1CCN(CCCCOc2ccc3ccc(=O)[nH]c3c2)CC1 [QN8] | human recombinant acetylcholinesterase (hrAChE) (Homo sapiens) | 6.54
CC(C)N1CCN(CCCCOc2ccc3c(c2)NC(=O)CC3)CC1 [DQN7] | human recombinant acetylcholinesterase (hrAChE) (Homo sapiens) | 5.80

As a next step, examine the compound that follows.
Query: Supply measured pIC50 of CC(C)N1CCN(CCCCCOc2ccc3ccc(=O)[nH]c3c2)CC1 [QN9] in your reply.
Reply: 6.02
